system: rodent lifetime carcinogenesis bioassay, tumor incidence TD50; experiment: carcinogenic potency in animals, long-term in vivo studies, CPDB compilation (AID 1745844); conditions: mouse; strain B6C3F1; females; by gavage; site: forestomach; lesion: squamous-cell carcinoma; dosed 102 weeks; study length 103 weeks
endpointLabel: TD50

Query :: Can you look up TD50 on rodent lifetime carcinogenesis bioassay, tumor incidence TD50 for CC(C)=CCl ?
Result :: 14.4 mg/kg/day

###

test system: rodent lifetime carcinogenesis bioassay, tumor incidence TD50; assay: carcinogenic potency in animals, long-term in vivo studies, CPDB compilation (AID 1745844); settings: mouse; strain B6C3F1; females; by gavage; site: all sites; lesion: hemangioma + hemangiosarcoma; dosed 105 weeks; study length 105 weeks
endpointLabel: TD50
Kindly format the answer as number then unit.

Query :: TD50 for C=C1C/C(=C/C)C(=O)O[C@@H]2CCN3CC=C(COC(=O)[C@@]1(O)CO)[C@H]23 ?
Result :: 10 mg/kg/day
